The values you see were collected from PubChem BioAssay (NCI).

tested on: KM12 colon; experiment: NCI-60 one-dose screen, 48 h; conditions: 10 µM unless noted
The panel holds about 83,000 compounds, 20% with a hit somewhere; the sample as a whole holds those more often. Calls of active or inactive are those of the source. How the source made its calls: active means growth percent below 10; inactive means the rest.
Pick one: active, inactive

O=C(Nc1ccc(Cl)c(Cl)c1)Nc1ccccc1O
inactive
CCC1C[N+]2=C(c3cc(OC)c(OC)cc3CC2)c2c1cc1n2CCc2cc(OC)c(OC)cc2-1 (stereo unspecified)
active
CCOC(=O)c1cc(CC)sc1NC(=O)CC(C)=O
inactive
CC1(C)N=c2cc3c(cc2N1c1ccc(Cl)cc1)=Nc1ccccc1N3c1ccc(Cl)cc1
inactive
O=[n+]1c2ccccc2n([O-])c2cc(Cl)ccc21
inactive

Ask | Could you please tell me the result logged for `CCCCCC[C@@H](O)C/C=C\CCCCCCCC(=O)OCCOC` in this assay?
Reply | inactive

* * *

Below, each entry is listed with its recorded growth.
tested on: BT-549 breast; test: NCI-60 one-dose screen, 48 h (100 = growth as untreated, 0 = no growth, -100 = all killed); conditions: 10 µM unless noted
About 83,000 compounds went through this panel and 20% of them were active in at least one assay; those are over-represented in the sample as a whole. *1 amine or outer side, *2 acyl side, *3 side chain or, on linkers, in order; H or OH if unused. Where a SMILES comes first, the peptide text is derived from it. Bridges are numbered along the chain shown (N, C = ends). Roman numbers before positions name the chains, in order. [ ]: non-standard residue; d: D form. Actinocin(1to9) = Cc1c2oc3c(C)ccc(C(=O)[*:2])c3nc-2c(C(=O)[*:1])c(N)c1=O; NMeV = CN[CH](C(=O)O)C(C)C; Sar = CNCC(=O)O
Supply the numeric figure in %, leaving out any unit text.

NC(=S)N/N=C\c1nccc2c(C(F)(F)F)cccc12
7.77

Measured growth (BT-549 breast), entry `Cc1ccc2cccc(OC(=O)Nc3cccc(C(F)(F)F)c3)c2n1` : 108

Measured growth (BT-549 breast), entry `CCCCCC[C@@H](O)C/C=C\CCCCCCCC(=O)OCCOC` : 99

Measured growth (BT-549 breast), entry CCC(C)C1NC(=O)C(NC(=O)c2c3nc4c(C(=O)NC5C(=O)NC(C(C)CC)C(=O)N6CCCC6C(=O)N(C)CC(=O)N(C)C(C(C)C)C(=O)OC5C)ccc(C)c4oc-3c(C)c(=O)c2N)C(C)OC(=O)C(C(C)C)N(C)C(=O)CN(C)C(=O)C2CCCN2C1=O (stereo not drawn) (I: TIP[Sar][NMeV] / II: TIP[Sar][NMeV]; ester I:1-I:C, II:1-II:C; linker I:N-II:N via Actinocin(1to9); configuration not given here) : -41.6

Measured growth (BT-549 breast), entry `c1ccc2sc(SSN3CC4CCC(CC4)C3)nc2c1` : 126

Measured growth (BT-549 breast), entry `Cc1ccc(N2C(=O)C=CC2=O)cc1` : 105

Measured growth (BT-549 breast), entry N#CC1c2ccccc2C=CN1C(=O)CCCl (stereo not drawn) : 92.1

Measured growth (BT-549 breast), entry O=C(c1ccccc1)C(Br)C(Br)c1ccccc1 (stereo not drawn) : 101

* * *

system: SF-539 CNS; experiment: NCI-60 one-dose screen, 48 h (100 = growth as untreated, 0 = no growth, -100 = all killed); conditions: 10 µM unless noted
The panel holds about 83,000 compounds, 20% with a hit somewhere; the sample as a whole holds those more often.
Please use criterion met whenever growth is not below 20%, and criterion not met whenever it is.

Field: example entries. Status: answers known.
O=C(O)c1ccc2c(c1)C(=O)c1ccccc1C2=O
criterion met
COc1cccc2c1C(=O)c1c(O)c3c(c(O)c1C2=O)C[C@@](O)(C(=O)CO)C[C@@H]3OC1CC(OC(C)=O)C(OC(C)=O)C(C)O1 (stereo partly drawn)
criterion not met

Ask | growth >= 20% for N#CC(I)CS(=O)(=O)c1ccccc1 (stereo not drawn) ?
Reply | criterion met

Ask | growth >= 20% for `O=C1C=CC(=O)N1c1cccc2c1CCCC2` ?
Reply | criterion met

Ask | growth >= 20% for `CCCCCCN(CCCCCC)CCCNc1nccc2ccccc12` ?
Reply | criterion not met

Ask | growth >= 20% for CCOC(=O)C1(C)CCCC1N (stereo not drawn) ?
Reply | criterion met

Ask | growth >= 20% for `CCCCCCCCc1cc(Cl)c(O)c(Cl)c1` ?
Reply | criterion met

Ask | growth >= 20% for `CSc1nc(C)c(C(=O)CCN2CCN(c3ccccn3)CC2)s1` ?
Reply | criterion met
